Values were extracted from patent US9315545B2.

Provide the reported % Purity of the Compound, 18 Hours 40° C. of each item.
- Protocol Summary: Stability in sodium acetate buffer pH 6 at two temperatures, reversed-phase HPLC
- Assay type: physicochemical
- Details: sodium acetate buffer pH 6, 18 hours, 40° C.
Numbers only, in %.

{"Compound": "CCCCCCCCCCCCCCCCNC(=O)CN(CC(N)=O)C(=O)CCCCCNC(=O)C(Cc1c[nH]c2ccccc12)NC(=O)C(CCCNC(=N)N)NC(=O)C(CSSC)NC(=O)C(CCCNC(=N)N)NC(=O)CC1CCCN1C(=O)C(NC(=O)C(Cc1c[nH]cn1)NC(=O)C(NC(=O)CNCC(=O)O)C(C)O)C(c1ccccc1)c1ccccc1 (stereo not drawn)", "Observed Result": 99.4}

Shifting focus to the compound that follows.
[in] What value of measured % Purity of the Compound, 18 Hours 40° C. is listed for CCCCCCCCCCCCCCCCNC(=O)CN(CC(N)=O)C(=O)CCCCCNC(=O)C(Cc1c[nH]c2ccccc12)NC(=O)C(CCCNC(=N)N)NC(=O)C(CSC(C)=O)NC(=O)C(CCCNC(=N)N)NC(=O)CC1CCCN1C(=O)C(NC(=O)C(Cc1c[nH]cn1)NC(=O)C(NC(=O)CNCC(=O)O)C(C)O)C(c1ccccc1)c1ccccc1 (stereo not drawn) ?
[out] 67.2

====

- Protocol Summary: physchem
- Format: physicochemical
- Details: pH 2.3, Solubility (mg/mL) at Ambient Temperature, 10% Tween 80 pH 2.3-2.8
Measurement Type: solubility

Some solved entries appear below for comparison.
{"Compound": "CCCCCCCCCCCCCCCCNC(=O)CN(CC(N)=O)C(=O)CCCCCNC(=O)C(Cc1c[nH]c2ccccc12)NC(=O)C(CCCNC(=N)N)NC(=O)C(CSSC)NC(=O)C(CCCNC(=N)N)NC(=O)CC1CCCN1C(=O)C(NC(=O)C(Cc1c[nH]cn1)NC(=O)C(NC(=O)CNCC(=O)O)C(C)O)C(c1ccccc1)c1ccccc1 (stereo not drawn)", "solubility": "60 to 100 mg/mL"}
{"Compound": "CCCCCCCCCCCCCCCCNC(=O)CN(CC(N)=O)C(=O)CCCCCNC(=O)[C@H](Cc1c[nH]c2ccccc12)NC(=O)[C@H](CCCNC(=N)N)NC(=O)[C@H](CSSC)NC(=O)[C@H](CCCNC(=N)N)NC(=O)CCNC(=O)[C@@H](NC(=O)[C@H](Cc1c[nH]cn1)NC(=O)[C@@H](NC(=O)CNCC(=O)O)[C@@H](C)O)C(c1ccccc1)c1ccccc1", "solubility": "15 to 20 mg/mL"}

With those in mind, consider the next compound.
[in] What value of solubility has been reported for the following compound? `CCCCCCCCCCCCCCCCNC(=O)CN(CC(N)=O)C(=O)CCCCCNC(=O)[C@H](Cc1c[nH]c2ccccc12)NC(=O)[C@H](CCCNC(=N)N)NC(=O)[C@H](CSSC)NC(=O)[C@H](CCCNC(=N)N)NC(=O)C1CCN(C(=O)[C@@H](NC(=O)[C@H](Cc2c[nH]cn2)NC(=O)[C@@H](NC(=O)CNCC(=O)O)[C@@H](C)O)C(c2ccccc2)c2ccccc2)CC1`
[out] 40 to 70 mg/mL

====

- Protocol Summary: physchem
- Assay type: physicochemical
- Details: pH 2.7, Solubility (mg/mL) at Ambient Temperature, 50% propylene glycol, pH 2.7
Measurement Type: solubility

Examples with answers:
{"Compound": "CCCCCCCCCCCCCCCCNC(=O)CN(CC(N)=O)C(=O)CCCCCNC(=O)[C@H](Cc1c[nH]c2ccccc12)NC(=O)[C@H](CCCNC(=N)N)NC(=O)[C@H](CSSC)NC(=O)[C@H](CCCNC(=N)N)NC(=O)C[C@@H]1CCCN1C(=O)[C@@H](NC(=O)[C@H](Cc1c[nH]cn1)NC(=O)[C@@H](NC(=O)CN(CC(=O)O)C(=O)CNC(C)=O)[C@@H](C)O)C(c1ccccc1)c1ccccc1", "solubility": "30 to 50 mg/mL"}
{"Compound": "CCCCCCCCCCCCCCCCNC(=O)CN(CC(N)=O)C(=O)CCCCCNC(=O)C(Cc1c[nH]c2ccccc12)NC(=O)C(CCCNC(=N)N)NC(=O)C(CSSC)NC(=O)C(CCCNC(=N)N)NC(=O)CC1CCCN1C(=O)C(NC(=O)C(Cc1c[nH]cn1)NC(=O)C(NC(=O)CNCC(=O)O)C(C)O)C(c1ccccc1)c1ccccc1 (stereo not drawn)", "solubility": "50 to 100 mg/mL"}

Please turn your attention to the following entry.
[in] If you can, please state the reported solubility value of CCCCCCCCCCCCCCCCNC(=O)CN(CC(N)=O)C(=O)CCCCCNC(=O)C(Cc1c[nH]c2ccccc12)NC(=O)C(CCCNC(=N)N)NC(=O)C(CSSC)NC(=O)C(CCCNC(=N)N)NC(=O)C1CCCN(C(=O)C(NC(=O)C(Cc2c[nH]cn2)NC(=O)C(NC(=O)CNCC(=O)O)C(C)O)C(c2ccccc2)c2ccccc2)C1 (stereo not drawn) .
[out] 50 to 100 mg/mL

====

- Protocol Summary: physchem
- Type: physicochemical
- Details: solubility in mildly acidic conditions
Measurement Type: solubility

[in] GET /values?readout=solubility&item= CCCCCCCCCCCCCCCCNC(=O)CN(CC(N)=O)C(=O)CCCCCNC(=O)C(Cc1c[nH]c2ccccc12)NC(=O)C(CCCNC(=N)N)NC(=O)C(CSSC)NC(=O)C(CCCNC(=N)N)NC(=O)C1CCCN(C(=O)C(NC(=O)C(Cc2c[nH]cn2)NC(=O)C(NC(=O)CNCC(=O)O)C(C)O)C(c2ccccc2)c2ccccc2)C1 (stereo not shown)
[out] > 100 mg/mL

====

- Protocol Summary: In vitro stability of compounds in rat plasma (37° C.)
- Format: in vitro ADME
- Details: rat plasma, 37° C.; read-out: In vitro plasma stability (T ½)
Measurement Type: half-life (min)
Give bare numbers, in min.

[in] half-life for CCCCCCCCCCCCCCCCNC(=O)CN(CC(N)=O)C(=O)CCCCCNC(=O)C(Cc1c[nH]c2ccccc12)NC(=O)C(CCCNC(=N)N)NC(=O)C(CS)NC(=O)C(CCCNC(=N)N)NC(=O)CC1CCCN1C(=O)C(NC(=O)C(Cc1c[nH]cn1)NC(=O)C(NC(=O)CNCC(=O)O)C(C)O)C(c1ccccc1)c1ccccc1 (stereo not shown) [Compound 1, reference compound] ?
[out] 23

====

- Protocol Summary: Compound blood levels after subcutaneous administration in the rat (LC/MS)
- Assay type: in vivo
- Details: in vivo, sc, 7.5 mg/kg
Measurement Type: AUC(0-t) (ng·h/mL)
One number for each entry, in ng·h/mL.

Past entries and their recorded results:
{"Compound": "CCCCCCCCCCCCCCCCNC(=O)CN(CC(N)=O)C(=O)CCCCCNC(=O)C(Cc1c[nH]c2ccccc12)NC(=O)C(CCCNC(=N)N)NC(=O)C(CSC(C)=O)NC(=O)C(CCCNC(=N)N)NC(=O)CC1CCCN1C(=O)C(NC(=O)C(Cc1c[nH]cn1)NC(=O)C(NC(=O)CNCC(=O)O)C(C)O)C(c1ccccc1)c1ccccc1 (stereo not drawn) [Compound 3]", "Measurement Type": "AUC(0-t)", "Units Symbol": "ng·h/mL", "Observed Result": 12200}
{"Compound": "CCCCCCCCCCCCCCCCNC(=O)CN(CC(N)=O)C(=O)CCCCCNC(=O)C(Cc1c[nH]c2ccccc12)NC(=O)C(CCCNC(=N)N)NC(=O)C(CSSC)NC(=O)C(CCCNC(=N)N)NC(=O)CC1CCCN1C(=O)C(NC(=O)C(Cc1c[nH]cn1)NC(=O)C(NC(=O)CNCC(=O)O)C(C)O)C(c1ccccc1)c1ccccc1 (stereo not drawn) [Compound 2]", "Measurement Type": "AUC(0-t)", "Units Symbol": "ng·h/mL", "Observed Result": 1010}

Proceed to the following item.
[in] # query: AUC(0-t) of entry CCCCCCCCCCCCCCCCNC(=O)CN(CC(N)=O)C(=O)CCCCCNC(=O)C(Cc1c[nH]c2ccccc12)NC(=O)C(CCCNC(=N)N)NC(=O)C(CSCC)NC(=O)C(CCCNC(=N)N)NC(=O)CC1CCCN1C(=O)C(NC(=O)C(Cc1c[nH]cn1)NC(=O)C(NC(=O)CNCC(=O)O)C(C)O)C(c1ccccc1)c1ccccc1 (stereo not drawn) [Compound 4]
[out] 25600

====

- Protocol Summary: physchem
- Type: physicochemical
- Details: Solubility (mg/mL) at Ambient Temperature, 30% PEG 400
Would you mind telling me the reported solubility of each entry?

A selection of reference data follows.
{"Compound": "CCCCCCCCCCCCCCCCNC(=O)CN(CC(N)=O)C(=O)CCCCCNC(=O)C(Cc1c[nH]c2ccccc12)NC(=O)C(CCCNC(=N)N)NC(=O)C(CSSC)NC(=O)C(CCCNC(=N)N)NC(=O)CC1CCCN1C(=O)C(NC(=O)C(Cc1c[nH]cn1)NC(=O)C(NC(=O)CNCC(=O)O)C(C)O)C(c1ccccc1)c1ccccc1 (stereo not drawn)", "solubility": "25 to 35 mg/mL"}
{"Compound": "CCCCCCCCCCCCCCCCNC(=O)CN(CC(N)=O)C(=O)CCCCCNC(=O)[C@H](Cc1c[nH]c2ccccc12)NC(=O)[C@H](CCCNC(=N)N)NC(=O)[C@H](CSSC)NC(=O)[C@H](CCCNC(=N)N)NC(=O)C1CCN(C(=O)[C@@H](NC(=O)[C@H](Cc2c[nH]cn2)NC(=O)[C@@H](NC(=O)CNCC(=O)O)[C@@H](C)O)C(c2ccccc2)c2ccccc2)CC1", "solubility": "25 to 35 mg/mL"}
{"Compound": "CCCCCCCCCCCCCCCCNC(=O)CN(CC(N)=O)C(=O)CCCCCNC(=O)[C@H](Cc1c[nH]c2ccccc12)NC(=O)[C@H](CCCNC(=N)N)NC(=O)[C@H](CSSC)NC(=O)[C@H](CCCNC(=N)N)NC(=O)C[C@@H]1CCCN1C(=O)[C@@H](NC(=O)[C@H](Cc1c[nH]cn1)NC(=O)[C@@H](NC(=O)CN(CC(=O)O)C(=O)CNC(C)=O)[C@@H](C)O)C(c1ccccc1)c1ccccc1", "solubility": "20 to 35 mg/mL"}

List reported solubility for each of these compounds:
1. CCCCCCCCCCCCCCCCNC(=O)CN(CC(N)=O)C(=O)CCCCCNC(=O)C(Cc1c[nH]c2ccccc12)NC(=O)C(CCCNC(=N)N)NC(=O)C(CSSC)NC(=O)C(CCCNC(=N)N)NC(=O)C1CCCN(C(=O)C(NC(=O)C(Cc2c[nH]cn2)NC(=O)C(NC(=O)CNCC(=O)O)C(C)O)C(c2ccccc2)c2ccccc2)C1 (stereo not drawn)
2. CCCCCCCCCCCCCCCCNC(=O)CN(CC(N)=O)C(=O)CCCCCNC(=O)[C@H](Cc1c[nH]c2ccccc12)NC(=O)[C@H](CCCNC(=N)N)NC(=O)[C@H](CSSC)NC(=O)[C@H](CCCNC(=N)N)NC(=O)[C@@H]1CCCN(C(=O)[C@@H](NC(=O)[C@H](Cc2c[nH]cn2)NC(=O)[C@@H](NC(=O)CNCC(=O)O)[C@@H](C)O)C(c2ccccc2)c2ccccc2)C1
3. CCCCCCCCCCCCCCCCNC(=O)CN(CC(N)=O)C(=O)CCCCCNC(=O)[C@H](Cc1c[nH]c2ccccc12)NC(=O)[C@H](CCCNC(=N)N)NC(=O)[C@H](CSSC)NC(=O)[C@H](CCCNC(=N)N)NC(=O)CCNC(=O)[C@@H](NC(=O)[C@H](Cc1c[nH]cn1)NC(=O)[C@@H](NC(=O)CNCC(=O)O)[C@@H](C)O)C(c1ccccc1)c1ccccc1

[out]
50 to 100 mg/mL
> 35 mg/mL
< 10 mg/mL
